Please provide measured Inhibition for the entries that follow.
- Tested on: Plasmodium falciparum
- MEASUREMENT DESCRIPTION: GSK_TCMDC: Inhibition of Plasmodium falciparum 3D7 in whole red blood cells, using parasite LDH activity as an index of growth. Test compounds present at 2uM
- Format: functional
The response must be a number in % with no trailing unit.

Query: Please give the measured Inhibition for this molecule: COC(=O)c1cccc(CNCc2ccc(-c3ccc(-c4nc5cccc(C)c5[nH]4)cc3)cc2)c1.O=C(O)C(F)(F)F
Result: 100

Query: Please give the measured Inhibition for this molecule: COc1ccc2c(N/N=C/c3ccccc3[N+](=O)[O-])cc(C)nc2c1
Result: 100

Query: Please give the measured Inhibition for this molecule: C=CCOC1OC(COC(c2ccccc2)(c2ccccc2)c2ccccc2)C(OC(C)=O)C(OC(C)=O)C1NC(C)=O (stereo not drawn)
Result: 93

* * *

- System: Plasmodium falciparum
- MEASUREMENT DESCRIPTION: GSK_TCMDC: Inhibition of Plasmodium falciparum 3D7 in whole red blood cells, using parasite LDH activity as an index of growth. Test compounds present at 2uM
- Assay type: functional
ASSAY READOUT: Inhibition (%)
The response must be a number in % with no trailing unit.

Query: What Inhibition appears in the records for this compound with Plasmodium falciparum? CN1CCc2cc(NC(=O)c3cc4ccccc4s3)cc(-c3ccccc3)c2CC1.Cl
Result: 91

Query: What Inhibition appears in the records for this compound with Plasmodium falciparum? CN1CCc2cc(I)c(O)cc2C1Cc1ccccc1Cl.Cl (stereo unspecified)
Result: 98

Query: What Inhibition appears in the records for this compound with Plasmodium falciparum? N[C@@H](Cc1cc(I)c(Oc2ccc(O)c(Cl)c2)c(I)c1)C(=O)O
Result: 96

Query: What Inhibition appears in the records for this compound with Plasmodium falciparum? CS(=O)(=O)c1cccc(-c2cnc3[nH]cc(-c4cccc(CCN)c4)c3c2)c1.O=C(O)C(F)(F)F
Result: 99

Query: What Inhibition appears in the records for this compound with Plasmodium falciparum? Cl.Cn1c(/C=C/C(=O)NC2CCC(CCN3CCc4ccc(C#N)cc4CC3)CC2)cc2ccccc21 (stereo unspecified)
Result: 100

Query: What Inhibition appears in the records for this compound with Plasmodium falciparum? O=S(=O)(Nc1cccc(CCN2CCCCC2CCN2CCCC2)c1)c1ccc(-c2ccccc2)cc1 (stereo unspecified)
Result: 99

Query: What Inhibition appears in the records for this compound with Plasmodium falciparum? CCCCCCN1CCN(Cc2cccc(NC(=O)c3cc4ccccc4o3)c2)CC1.O=C(O)C(F)(F)F
Result: 93

Query: What Inhibition appears in the records for this compound with Plasmodium falciparum? CSc1cccc(Nc2nc3ccc(S(=O)(=O)NC(C)C(C)C)cc3n2[C@H](C)C(C)(C)C)c1 (stereo partly specified)
Result: 97

Query: What Inhibition appears in the records for this compound with Plasmodium falciparum? Cc1cc(NC(=O)c2cc(Br)ccc2Cl)n(-c2nc(C)c(C)c(=O)[nH]2)n1
Result: 91

Query: What Inhibition appears in the records for this compound with Plasmodium falciparum? CN1CCC(NCc2ccc(-c3ccc(C(F)(F)F)cc3)cc2)CC1
Result: 99

Query: What Inhibition appears in the records for this compound with Plasmodium falciparum? Cc1[nH]c(C)c(-c2ccc(-c3ccccc3F)nc2)c(=O)c1Br
Result: 97

* * *

- Tested on: HepG2
- MEASUREMENT DESCRIPTION: GSK_TCMDC: Percent inhibition of human HepG2 cell line. Test compounds present at 10uM.
- Assay type: functional
Threshold 10%. Inhibition below it: criterion met. Inhibition at it or above: criterion not met.

Query: Take the molecule CCOc1ccccc1CNc1nccc(NCc2ccc(Cl)cc2Cl)n1 and say whether its Inhibition is less than 10%.
Result: criterion not met

Query: Take the molecule Cc1cc(N2CCN(CC3CCN(C)CC3)CC2)nc(Nc2ccc(Cl)cc2)n1 and say whether its Inhibition is less than 10%.
Result: criterion not met

Query: Take the molecule Cc1cc(N2CCOCC2)nc2ccc(NC(=O)c3cccc([N+](=O)[O-])c3)cc12 and say whether its Inhibition is less than 10%.
Result: criterion met

Query: Take the molecule Cc1cc(N2CCC(NS(=O)(=O)c3cccc4cccnc34)CC2)nc(Nc2cccc(C#N)c2)n1.O=C(O)C(F)(F)F and say whether its Inhibition is less than 10%.
Result: criterion not met

Query: Take the molecule Clc1ccc2c(Cl)c(CNCCCNc3nc4ccccc4[nH]3)[nH]c2c1 and say whether its Inhibition is less than 10%.
Result: criterion not met

Query: Take the molecule CCOc1ccc(NC(=O)c2ccc(CN3CCCN(Cc4cccc(O)c4)CC3)cc2)cc1.O=C(O)C(F)(F)F and say whether its Inhibition is less than 10%.
Result: criterion not met

Query: Take the molecule O=C(Cc1cccc(O)c1)Nc1ccc(-c2cccc(-c3nc4cc(C(F)(F)F)ccc4[nH]3)c2)cc1 and say whether its Inhibition is less than 10%.
Result: criterion not met

Query: Take the molecule NCCC(=O)Nc1ccc(-c2cnc3[nH]cc(-c4ccc(C(=O)O)cc4)c3c2)cn1.O=C(O)C(F)(F)F and say whether its Inhibition is less than 10%.
Result: criterion met

Query: Take the molecule COc1ccc(-c2ccc(NC(=O)c3cccc(C#N)c3)cc2)cc1CN1CCCN(C)CC1.O=C(O)C(F)(F)F and say whether its Inhibition is less than 10%.
Result: criterion not met

Query: Take the molecule COc1ccc(Nc2nc(NCc3cccnc3)cc(-c3ccc(OC)cc3)n2)cc1 and say whether its Inhibition is less than 10%.
Result: criterion met

Query: Take the molecule O=S(=O)(c1ccc(Oc2ccccc2)cc1)N(CCC(O)(C(F)(F)F)C(F)(F)F)Cc1cccc(O)c1 and say whether its Inhibition is less than 10%.
Result: criterion met

Query: Take the molecule CC(C)C[C@H](NC(=O)c1ccc(OCCN2CCOCC2)cc1)C(=O)N[C@H](/C=N/N(C)C(=O)c1ccccc1)CCc1ccccc1 and say whether its Inhibition is less than 10%.
Result: criterion met

Query: Take the molecule Cc1[nH]c2ccccc2c1C(=O)C(C)Sc1nnc(-c2ccccc2F)o1 (stereo not drawn) and say whether its Inhibition is less than 10%.
Result: criterion not met

Query: Take the molecule Cl.O=C(Nc1ccc(Cl)c(Cl)c1)Nc1ccc2nccc(N3CCNCC3)c2c1 and say whether its Inhibition is less than 10%.
Result: criterion not met

Query: Take the molecule COc1ccc(CNCCCCCNCc2ccc(Cl)c(Cl)c2)cc1Cl and say whether its Inhibition is less than 10%.
Result: criterion not met

Query: Take the molecule CCCC(C)Nc1nc(C)cc(NCCC(=O)Nc2ccccc2)n1.O=C(O)C(F)(F)F (stereo not drawn) and say whether its Inhibition is less than 10%.
Result: criterion not met

Query: Take the molecule CCCC(CC)n1ccc2c3c(N)nc(N)nc3ccc21.CS(=O)(=O)O (stereo not drawn) and say whether its Inhibition is less than 10%.
Result: criterion not met

Query: Take the molecule O=C(CSc1nc(-c2ccccc2Cl)ns1)Nc1cccc(Cl)c1 and say whether its Inhibition is less than 10%.
Result: criterion met

Query: Take the molecule O=C(O)C(F)(F)F.O=S(=O)(NCCN1CCCC1)c1cccc(-c2cccc(CNCc3ccsc3)c2)c1 and say whether its Inhibition is less than 10%.
Result: criterion not met

Query: Take the molecule CN1CCN(c2ccnc3ccc(NC(=O)Nc4cccc5ccccc45)cc23)CC1 and say whether its Inhibition is less than 10%.
Result: criterion met

Query: Take the molecule CCCC(C)C(=O)N1CCOC(COCc2cccc(C(F)(F)F)c2)(c2ccc(Cl)cc2)C1 (stereo not drawn) and say whether its Inhibition is less than 10%.
Result: criterion met

Query: Take the molecule Cl.O=C(Nc1cc(Cl)cc(Cl)c1)c1cnn(-c2ccc(F)cc2)c1C1CCNCC1 and say whether its Inhibition is less than 10%.
Result: criterion not met
